# Read-out: Interferon-gamma inducible Protein 10 (IP10), CXCL10 (gene 3627)
# assay protocol: BSK_KF3CT_IP10: BioMAP Diversity Plus: KF3CT Assay for Interferon-gamma inducible Protein 10 (IP10) Biomarker Activity (AID 2283068)
# assay context: primary human keratinocytes with fibroblasts; actives raise or lower the signal
Calls of active or inactive are those of the source. The calls were made as follows: active = hit-call score of the fitted dose curve at least 0.9, where 1 is the maximum; inactive = score below 0.9.
Output constraint: value belongs to class 1 = active, class 0 = inactive

Asked: What outcome does the record of this test show for c1ccc2cc3ccccc3cc2c1 ?
Given back: class 0

Asked: What outcome does the record of this test show for C[Si](C)(C)C(F)(F)C(F)(F)C(F)(F)F ?
Given back: class 0

Asked: What outcome does the record of this test show for OC(O)(C(F)C(O)(O)C(F)(F)F)C(F)(F)F ?
Given back: class 0

* * *

# Read-out: CFLAR gene, CFLAR (gene 8837)
# assay protocol: LTEA_HepaRG_CFLAR: Life Technologies and Expression Analysis (LTEA) Assay for CFLAR gene using HepaRG (AID 2283455)
# assay context: mRNA level, 48 h; actives raise or lower the signal
The source made the active and inactive calls. The calls were made as follows: active = hit-call score of the fitted dose curve at least 0.9, where 1 is the maximum; inactive = score below 0.9.
Output constraint: value belongs to TRUE for active, FALSE for inactive

{"smiles input": "OCCOCCOCCO", "class label": "FALSE"}
{"smiles input": "CCCCCOC(C)=O", "class label": "FALSE"}
{"smiles input": "OC(CCl)CCl", "class label": "FALSE"}
{"smiles input": "Cc1nccn1-c1ccc(Sc2cccc(C3(C(N)=O)CCOCC3)c2)cc1", "class label": "TRUE"}
{"smiles input": "COc1cc(C(C)C)c2c(c1)S(=O)(=O)N(COc1cc(=O)n3cccc(OCCN4CCCCC4)c3n1)C2=O", "class label": "TRUE"}

Asked: What outcome does the record of this test show for CCCCCCCCN(C)C ?
Given back: FALSE

Asked: What outcome does the record of this test show for OC[C@H]1O[C@@H]2O[C@H]3[C@H](O)[C@@H](O)[C@@H](O[C@H]4[C@H](O)[C@@H](O)[C@@H](O[C@H]5[C@H](O)[C@@H](O)[C@@H](O[C@H]6[C@H](O)[C@@H](O)[C@@H](O[C@H]7[C@H](O)[C@@H](O)[C@@H](O[C@H]1[C@H](O)[C@H]2O)O[C@@H]7CO)O[C@@H]6CO)O[C@@H]5CO)O[C@@H]4CO)O[C@@H]3CO ?
Given back: FALSE

Asked: What outcome does the record of this test show for O=S(=O)(O)c1ccc(N=Nc2c(O)ccc3cc(S(=O)(=O)O)ccc23)cc1 ?
Given back: FALSE

Asked: What outcome does the record of this test show for CCOc1ccc2[nH]cc(C(=O)NCc3ccccc3)c(=O)c2n1 ?
Given back: FALSE

Asked: What outcome does the record of this test show for OCc1ccccc1 ?
Given back: FALSE

* * *

# Read-out: Cytochrome P450 7A1 (Homo sapiens)
# assay protocol: LTEA_HepaRG_CYP7A1: Life Technologies and Expression Analysis (LTEA) Assay for Cytochrome P450 7A1 (CYP7A1) using HepaRG (AID 2283496)
# assay context: mRNA level, 48 h; actives raise or lower the signal
# Method: LTEA_HepaRG is a cell based, multiplexed-readout assay that uses HepaRG, a human liver cell line, with measurements taken at 48 hours after chemical dosing on a 96-well plate.LTEA_HepaRG_CYP7A1 is one of 102 assay component(s) measured in the LTEA HepaRG cell culture assay. It is a marker of NR mediated metabolism.Data from the assay component LTEA_HepaRG_CYP7A1 was analyzed into 1 endpoint. […]
The source made the active and inactive calls. Rule for the calls: active = hit-call score of the fitted dose curve at least 0.9, where 1 is the maximum; inactive = score below 0.9.
measured endpoint: AC50

# example entries with known answers
{"molecule": "OC[C@H]1O[C@@](CO)(O[C@H]2O[C@H](CO)[C@@H](O)[C@H](O)[C@H]2O)[C@@H](O)[C@@H]1O", "AC50": "inactive"}
{"molecule": "CC(C)CC(C)O (configuration not stated)", "AC50": "inactive"}
{"molecule": "CCCCOC(=O)c1ccccc1", "AC50": "inactive"}
{"molecule": "CNC(C)=O", "AC50": "inactive"}
{"molecule": "O=S(=O)(O)c1ccc(N=Nc2c(O)ccc3cc(S(=O)(=O)O)ccc23)cc1", "AC50": "inactive"}
{"molecule": "OCCNCCO", "AC50": "50 µM (active)"}

Asked: Quick one: AC50 for NC(=O)NN=Cc1ccc([N+](=O)[O-])o1 ?
Given back: 13.6 µM (active)

* * *

# Read-out: Pro-epidermal growth factor (Homo sapiens)
# assay protocol: LTEA_HepaRG_EGF: Life Technologies and Expression Analysis (LTEA) Assay for Epidermal growth factor (EGF) using HepaRG (AID 2283489)
# assay context: mRNA level, 48 h; actives raise or lower the signal
Activity calls are given as the source filed them. How the source made its calls: active means hit-call score of the fitted dose curve at least 0.9, where 1 is the maximum; inactive means score below 0.9.
Output constraint: value belongs to class 1 for active, class 0 for inactive

See these solved cases before continuing.
{"molecule": "Cc1ccc(S(=O)(=O)NC(=O)NN2CCCCCC2)cc1", "class label": "class 0"}
{"molecule": "CCCCCCOC(=O)CC(CC(=O)OCCCCCC)(OC(=O)CCC)C(=O)OCCCCCC", "class label": "class 0"}
{"molecule": "Cn1cc[nH]c1=S", "class label": "class 0"}
{"molecule": "C=CN1CCCC1=O", "class label": "class 0"}
{"molecule": "NC(=O)NN=Cc1ccc([N+](=O)[O-])o1", "class label": "class 1"}

Asked: What outcome does the record of this test show for c1ccc2c(c1)-c1cccc3c1c-2cc1ccccc13 ?
Given back: class 0

Asked: What outcome does the record of this test show for O=C(O)[C@H](O)[C@@H](O)C(=O)O ?
Given back: class 0

Asked: What outcome does the record of this test show for CCCCC(CC)C(=O)OCCOCCOCCOC(=O)C(CC)CCCC (centres undefined) ?
Given back: class 0

Asked: What outcome does the record of this test show for CNC(C)=O ?
Given back: class 0

Asked: What outcome does the record of this test show for CC1(C)C(=O)N(Cl)C(=O)N1Cl ?
Given back: class 0

Asked: What outcome does the record of this test show for CC(C)c1nnc2ccc(-c3ocnc3-c3cc(F)ccc3F)cn12 ?
Given back: class 0

Asked: What outcome does the record of this test show for OCCOCCOCCO ?
Given back: class 0

Asked: What outcome does the record of this test show for c1ccc(C(O[C@@H]2CCCN(CCc3ccc4c(c3)OCO4)C2)c2ccccc2)cc1 ?
Given back: class 0

Asked: What outcome does the record of this test show for c1ccc2cc3ccccc3cc2c1 ?
Given back: class 0

Asked: What outcome does the record of this test show for CC(C)CCCCCCOC(=O)C1CCCCC1C(=O)OCCCCCCC(C)C (centres undefined) ?
Given back: class 0

Asked: What outcome does the record of this test show for Cc1nccn1-c1ccc(Sc2cccc(C3(C(N)=O)CCOCC3)c2)cc1 ?
Given back: class 1

Asked: What outcome does the record of this test show for OCCNCCO ?
Given back: class 0

Asked: What outcome does the record of this test show for O=C1CN(N=Cc2ccc([N+](=O)[O-])o2)C(=O)N1 ?
Given back: class 0

Asked: What outcome does the record of this test show for OCc1ccccc1 ?
Given back: class 0

* * *

# Read-out: CD40, CD40 (gene 958)
# assay protocol: BSK_LPS_CD40: BioMAP Diversity Plus: LPS Assay for CD40 Biomarker Activity (AID 2283076)
# assay context: primary human HUVEC with PBMC; actives raise or lower the signal
Activity calls are given as the source filed them. The calls were made as follows: active = hit-call score of the fitted dose curve at least 0.9, where 1 is the maximum; inactive = score below 0.9.
Output constraint: value belongs to label 1 for active, label 0 for inactive

See these solved cases before continuing.
{"smiles input": "C=CCc1cc(S(=O)(=O)c2ccc(O)c(CC=C)c2)ccc1O", "class label": "label 1"}
{"smiles input": "Nc1ccn([C@@H]2O[C@H](CO)[C@@H](O)[C@@H]2O)c(=O)n1", "class label": "label 0"}
{"smiles input": "OC[C@H]1O[C@@H]2O[C@H]3[C@H](O)[C@@H](O)[C@@H](O[C@H]4[C@H](O)[C@@H](O)[C@@H](O[C@H]5[C@H](O)[C@@H](O)[C@@H](O[C@H]6[C@H](O)[C@@H](O)[C@@H](O[C@H]7[C@H](O)[C@@H](O)[C@@H](O[C@H]1[C@H](O)[C@H]2O)O[C@@H]7CO)O[C@@H]6CO)O[C@@H]5CO)O[C@@H]4CO)O[C@@H]3CO", "class label": "label 0"}

Here is the next item to consider.
Asked: What outcome does the record of this test show for OCCC(F)(F)C(F)(F)C(F)(F)C(F)(F)F ?
Given back: label 0

* * *

# assay protocol: BSK_3C_Proliferation: Cell Proliferation Assessment in the BioMAP Diversity Plus: 3C Assay (AID 2283006)
# assay context: primary human endothelial cells (HUVEC)
Calls of active or inactive are those of the source. Rule for the calls: active = hit-call score of the fitted dose curve at least 0.9, where 1 is the maximum; inactive = score below 0.9.
Output constraint: value belongs to true for active, false for inactive

See these solved cases before continuing.
{"molecule": "CC(C)CCCCCCOC(=O)C1CCCCC1C(=O)OCCCCCCC(C)C (stereo unspecified)", "class label": "false"}
{"molecule": "OC[C@H]1O[C@@H]2O[C@H]3[C@H](O)[C@@H](O)[C@@H](O[C@H]4[C@H](O)[C@@H](O)[C@@H](O[C@H]5[C@H](O)[C@@H](O)[C@@H](O[C@H]6[C@H](O)[C@@H](O)[C@@H](O[C@H]7[C@H](O)[C@@H](O)[C@@H](O[C@H]1[C@H](O)[C@H]2O)O[C@@H]7CO)O[C@@H]6CO)O[C@@H]5CO)O[C@@H]4CO)O[C@@H]3CO", "class label": "false"}
{"molecule": "CCCCN1C(=O)[C@@H]([C@H](O)C2CCCCC2)NC(=O)C12CCN(Cc1ccc(Oc3ccc(C(=O)O)cc3)cc1)CC2", "class label": "true"}
{"molecule": "CC(C)c1nnc2ccc(-c3ocnc3-c3cc(F)ccc3F)cn12", "class label": "false"}
{"molecule": "CC1(C)C(=O)N(Cl)C(=O)N1Cl", "class label": "false"}

Asked: What outcome does the record of this test show for Cn1cc[nH]c1=S ?
Given back: false
